Target: Replicase polyprotein 1ab (Severe acute respiratory syndrome coronavirus 2, UniProt P0DTD1)
Parameter log10 of IC50: see the listing below.
// units: nM (pre-log); metric: IC50; scale: log10

Worked cases, log10 of IC50 given:
| Compound | Observation type | Observed value |
| --- | --- | --- |
| CC(C)C[C@H](NC(=O)OC1CC2(C1)CN(S(C)(=O)=O)C2)C(=O)N[C@H](C=O)C[C@H]1CCNC1=O | log10 of IC50 | 2.83 |
| CC(C)C[C@H](NC(=O)OC1CC2(CCN(C(=O)OC(C)(C)C)CC2)C1)C(=O)N[C@H](C=O)C[C@H]1CCNC1=O | log10 of IC50 | 2.56 |
| CC(C)C[C@H](NC(=O)OCC1CN(C(=O)OC(C)(C)C)C1)C(=O)N[C@H](C=O)C[C@H]1CCNC1=O | log10 of IC50 | 2.61 |
| CC(C)C[C@H](NC(=O)OC1CCC2(C1)CN(C(=O)OC(C)(C)C)C2)C(=O)N[C@H](C=O)C[C@H]1CCNC1=O (some centres not stated) | log10 of IC50 | 3.10 |
| CC(C)C[C@H](NC(=O)OC1CC2(CCN(C(=O)C(C)C)CC2)C1)C(=O)N[C@H](C=O)C[C@H]1CCNC1=O | log10 of IC50 | 2.58 |

Looking up CC(C)C[C@H](NC(=O)OC1CC2(C1)CN(C(=O)Cc1ccccc1)C2)C(=O)N[C@H](C=O)C[C@H]1CCNC1=O , I see its log10 of IC50 listed as 2.41

Record CC(C)C[C@H](NC(=O)OCC1CN(C(=O)Cc2ccccc2)C1)C(=O)N[C@H](C=O)C[C@H]1CCNC1=O . Reported log10 of IC50: 2.92

# log10 of IC50 of CC(C)C[C@H](NC(=O)OC1CC2(CCN(C#N)CC2)C1)C(=O)N[C@H](C=O)C[C@H]1CCNC1=O = 2.51

Value of measured log10 of IC50 for the entry CC(C)C[C@H](NC(=O)OC1CC2(C1)CN(C(=O)C(C)C)C2)C(=O)N[C@H](C=O)C[C@H]1CCNC1=O : 3.06

---

CC50 by entry:
Test: Cytotoxicity against african green monkey Vero E6 cells
Assay type: toxicity, cell-based, Vero C1008
Settings: chlorocebus sabaeus

| Molecule | CC50 |
| --- | --- |
| CC(C)C[C@H](NC(=O)OC1CC2(C1)CN(S(C)(=O)=O)C2)C(=O)N[C@H](C=O)C[C@H]1CCNC1=O | > 100 µM |

# input for lookup
The molecule CC(C)C[C@H](NC(=O)OC1(C)CN(C(=O)OC(C)(C)C)C1)C(=O)N[C@@H](C[C@H]1CCNC1=O)C(=O)C(O)S(=O)(=O)O (some centres not stated) showed CC50 equal to > 100 µM

---

// Replicase polyprotein 1ab (Severe acute respiratory syndrome coronavirus 2) pIC50 records
Hey, just a heads up that pIC50 is the negative log base 10 of the concentration in molar.

| Compound | Target entity | Observed value |
| --- | --- | --- |
| CC(C)C[C@H](NC(=O)OC1CC2(CCN(S(C)(=O)=O)CC2)C1)C(=O)N[C@H](C=O)C[C@H]1CCNC1=O | Replicase polyprotein 1ab (Severe acute respiratory syndrome coronavirus 2) | 6.62 |

Item: CC(C)C[C@H](NC(=O)OC1CC2(C1)CN(C(=O)OC(C)(C)C)C2)C(=O)N[C@H](C=O)C[C@H]1CCNC1=O | pIC50: 5.48

Measured pIC50 of CC(C)C[C@H](NC(=O)OC1CC2(CCN(C(=O)Cc3ccccc3)CC2)C1)C(=O)N[C@H](C=O)C[C@H]1CCNC1=O : 6.46

Lab note: CC(C)C[C@H](NC(=O)OCC1CN(S(C)(=O)=O)C1)C(=O)N[C@H](C=O)C[C@H]1CCNC1=O gave pIC50 of 5.31

Short answer for CC(C)C[C@H](NC(=O)OCC1CN(C(=O)C2CC3CCC2C3)C1)C(=O)N[C@H](C=O)C[C@H]1CCNC1=O (stereo partly drawn) : pIC50 was 6.28

Summary for this compound, CC(C)C[C@H](NC(=O)OC1(C)CN(C(=O)OC(C)(C)C)C1)C(=O)N[C@H](C=O)C[C@H]1CCNC1=O : pIC50 is 5.44

For record [2H]C([2H])(OC(=O)N[C@@H](CC(C)C)C(=O)N[C@H](C=O)C[C@H]1CCNC1=O)C1CN(C(=O)OC(C)(C)C)C1 the listed pIC50 is 6.48

The reported value for CC(C)C[C@H](NC(=O)OC1CN(C(=O)OC(C)(C)C)C1)C(=O)N[C@H](C=O)C[C@H]1CCNC1=O in terms of pIC50 is 5.60
